tested on: HiBit-WIZ fusion protein (Homo sapiens, UniProt O95785+Q96SW2)
Sequence (O95785 whole entry, the tested form may be a part): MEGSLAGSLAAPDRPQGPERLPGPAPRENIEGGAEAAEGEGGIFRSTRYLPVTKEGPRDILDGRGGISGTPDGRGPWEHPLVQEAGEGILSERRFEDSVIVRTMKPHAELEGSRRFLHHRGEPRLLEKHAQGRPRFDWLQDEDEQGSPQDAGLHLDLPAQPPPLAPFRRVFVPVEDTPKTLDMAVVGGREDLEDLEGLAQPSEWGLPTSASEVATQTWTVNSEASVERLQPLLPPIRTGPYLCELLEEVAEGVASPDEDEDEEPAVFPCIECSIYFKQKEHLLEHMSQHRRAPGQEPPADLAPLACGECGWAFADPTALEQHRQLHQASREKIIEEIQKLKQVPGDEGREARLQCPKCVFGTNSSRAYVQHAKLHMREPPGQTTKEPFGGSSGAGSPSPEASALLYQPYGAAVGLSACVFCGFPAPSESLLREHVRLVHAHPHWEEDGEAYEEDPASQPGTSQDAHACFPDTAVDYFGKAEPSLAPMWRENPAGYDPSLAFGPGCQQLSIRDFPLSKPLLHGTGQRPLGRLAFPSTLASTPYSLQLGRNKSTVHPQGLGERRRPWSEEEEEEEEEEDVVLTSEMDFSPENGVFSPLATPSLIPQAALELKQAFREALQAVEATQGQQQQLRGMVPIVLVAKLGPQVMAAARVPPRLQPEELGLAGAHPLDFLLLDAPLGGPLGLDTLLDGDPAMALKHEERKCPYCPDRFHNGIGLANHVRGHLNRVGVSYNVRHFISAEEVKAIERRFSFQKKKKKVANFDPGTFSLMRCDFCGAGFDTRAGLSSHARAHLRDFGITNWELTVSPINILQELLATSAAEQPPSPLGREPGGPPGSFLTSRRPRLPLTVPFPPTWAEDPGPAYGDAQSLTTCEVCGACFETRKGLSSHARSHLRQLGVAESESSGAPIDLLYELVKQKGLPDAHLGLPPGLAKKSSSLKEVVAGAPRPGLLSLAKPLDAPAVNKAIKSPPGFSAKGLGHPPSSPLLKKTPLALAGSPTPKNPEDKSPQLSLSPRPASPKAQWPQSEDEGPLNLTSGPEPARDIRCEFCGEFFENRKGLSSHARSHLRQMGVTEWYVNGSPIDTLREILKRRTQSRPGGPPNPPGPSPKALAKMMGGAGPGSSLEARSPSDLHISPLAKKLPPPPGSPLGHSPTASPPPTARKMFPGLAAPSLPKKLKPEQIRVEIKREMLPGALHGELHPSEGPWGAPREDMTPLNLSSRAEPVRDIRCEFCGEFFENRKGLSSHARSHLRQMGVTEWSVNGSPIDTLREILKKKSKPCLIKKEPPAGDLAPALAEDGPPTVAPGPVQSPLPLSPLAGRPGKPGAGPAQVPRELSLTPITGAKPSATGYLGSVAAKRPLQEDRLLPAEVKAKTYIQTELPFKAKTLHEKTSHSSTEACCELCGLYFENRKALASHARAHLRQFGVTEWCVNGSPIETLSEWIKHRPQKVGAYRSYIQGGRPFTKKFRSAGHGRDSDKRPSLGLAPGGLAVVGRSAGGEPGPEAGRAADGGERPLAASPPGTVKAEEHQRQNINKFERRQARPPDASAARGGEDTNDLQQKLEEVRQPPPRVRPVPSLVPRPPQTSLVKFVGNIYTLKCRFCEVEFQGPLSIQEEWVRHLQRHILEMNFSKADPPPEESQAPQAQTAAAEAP
Sequence (Q96SW2 whole entry, the tested form may be a part): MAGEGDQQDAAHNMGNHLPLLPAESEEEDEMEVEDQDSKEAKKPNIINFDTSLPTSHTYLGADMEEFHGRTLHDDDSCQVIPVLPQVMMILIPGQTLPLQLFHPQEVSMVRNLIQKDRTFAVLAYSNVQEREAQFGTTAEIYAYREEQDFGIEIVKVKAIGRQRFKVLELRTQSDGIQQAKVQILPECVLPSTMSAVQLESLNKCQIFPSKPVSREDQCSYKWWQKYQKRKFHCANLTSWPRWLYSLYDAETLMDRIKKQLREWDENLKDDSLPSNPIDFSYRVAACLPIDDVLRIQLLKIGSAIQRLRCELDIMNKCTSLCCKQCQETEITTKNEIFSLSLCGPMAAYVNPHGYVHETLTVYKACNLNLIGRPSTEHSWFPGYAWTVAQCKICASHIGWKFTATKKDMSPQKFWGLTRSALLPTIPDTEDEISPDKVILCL
Sequence (Q16531 whole entry partner, the tested form may be a part): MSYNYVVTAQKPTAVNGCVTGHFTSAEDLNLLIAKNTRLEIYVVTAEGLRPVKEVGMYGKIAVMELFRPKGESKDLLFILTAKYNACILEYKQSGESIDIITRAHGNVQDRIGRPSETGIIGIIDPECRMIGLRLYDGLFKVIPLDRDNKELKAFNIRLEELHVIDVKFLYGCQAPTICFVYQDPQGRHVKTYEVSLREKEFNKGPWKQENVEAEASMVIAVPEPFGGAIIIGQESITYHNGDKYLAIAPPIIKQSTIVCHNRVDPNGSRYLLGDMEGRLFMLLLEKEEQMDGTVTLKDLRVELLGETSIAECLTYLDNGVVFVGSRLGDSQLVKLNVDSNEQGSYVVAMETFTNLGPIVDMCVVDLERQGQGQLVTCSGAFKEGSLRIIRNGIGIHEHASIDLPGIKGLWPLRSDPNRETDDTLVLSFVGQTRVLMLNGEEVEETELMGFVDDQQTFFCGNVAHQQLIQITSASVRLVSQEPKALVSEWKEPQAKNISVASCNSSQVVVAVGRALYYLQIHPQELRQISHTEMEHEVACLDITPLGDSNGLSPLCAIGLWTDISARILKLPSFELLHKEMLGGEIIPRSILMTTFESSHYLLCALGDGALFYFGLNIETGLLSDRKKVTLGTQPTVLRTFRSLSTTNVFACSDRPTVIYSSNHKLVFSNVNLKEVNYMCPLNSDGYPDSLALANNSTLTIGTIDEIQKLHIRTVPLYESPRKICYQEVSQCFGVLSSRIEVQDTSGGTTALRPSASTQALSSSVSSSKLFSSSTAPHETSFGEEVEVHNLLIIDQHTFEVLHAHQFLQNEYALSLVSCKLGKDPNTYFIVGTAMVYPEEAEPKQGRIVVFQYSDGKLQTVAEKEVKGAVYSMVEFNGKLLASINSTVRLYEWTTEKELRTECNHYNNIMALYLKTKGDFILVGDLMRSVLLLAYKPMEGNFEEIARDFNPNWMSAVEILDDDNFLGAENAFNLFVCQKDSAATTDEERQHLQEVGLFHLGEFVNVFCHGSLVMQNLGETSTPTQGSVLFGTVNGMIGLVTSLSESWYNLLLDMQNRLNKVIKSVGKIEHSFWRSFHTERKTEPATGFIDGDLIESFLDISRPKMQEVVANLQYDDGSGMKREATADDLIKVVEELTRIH
experiment notes: Quantification of WIZ protein levels in HiBit tag fusion protein assay (WIZ HiBit assay in 293T cells)
Assay type: cell-based
condition: HEK-293T, DMSO-normalized, curve-fitted percentage of WIZ-HiBit remaining at 25 uM; 293T cells; read-out: WIZ Amax
parameter measured: remaining activity at up to 25 µM (%)

Reference set (10 entries):
Ask: Lab note: need remaining activity at up to 25 µM with HiBit-WIZ fusion protein (Homo sapiens, UniProt O95785+Q96SW2) for entry O=C1CCC(N2Cc3cc(OC[C@@H]4CCCCN4C(=O)c4cccc(N5CCOCC5)n4)ccc3C2=O)C(=O)N1 (stereo partly shown) [Compound I-72ae] , please look it up.
Result: 85.3

Ask: Lab note: need remaining activity at up to 25 µM with HiBit-WIZ fusion protein (Homo sapiens, UniProt O95785+Q96SW2) for entry CO[C@H]1C[C@H](CN2CCCC[C@@H]2COc2ccc3c(c2)CN(C2CCC(=O)NC2=O)C3=O)C1 (stereo partly shown) , please look it up.
Result: 8.17

Ask: Lab note: need remaining activity at up to 25 µM with HiBit-WIZ fusion protein (Homo sapiens, UniProt O95785+Q96SW2) for entry Cn1nnc2cc(CN3CCCC[C@H]3COc3ccc4c(c3)CN(C3CCC(=O)NC3=O)C4=O)ccc21 (stereo partly shown) [Compound I-50ah] , please look it up.
Result: 55.6

Ask: Lab note: need remaining activity at up to 25 µM with HiBit-WIZ fusion protein (Homo sapiens, UniProt O95785+Q96SW2) for entry O=C1CCC(N2Cc3cc(OC[C@H]4CCCCN4Cc4ccc(N5CCN(C6CCOCC6)CC5)cc4)ccc3C2=O)C(=O)N1 (stereo partly shown) , please look it up.
Result: 29.9

Ask: Lab note: need remaining activity at up to 25 µM with HiBit-WIZ fusion protein (Homo sapiens, UniProt O95785+Q96SW2) for entry CC(C)(C)OC(=O)N1CCC(c2ccc(CN3CCCC[C@@H]3COc3ccc4c(c3)CN(C3CCC(=O)NC3=O)C4=O)cc2)CC1 (stereo partly shown) , please look it up.
Result: 6.64

Ask: Lab note: need remaining activity at up to 25 µM with HiBit-WIZ fusion protein (Homo sapiens, UniProt O95785+Q96SW2) for entry O=C1CCC(N2Cc3cc(OC[C@H]4CCCCN4Cc4cncnc4)ccc3C2=O)C(=O)N1 (stereo partly shown) [Compound I-50ce] , please look it up.
Result: 56.1

Ask: Lab note: need remaining activity at up to 25 µM with HiBit-WIZ fusion protein (Homo sapiens, UniProt O95785+Q96SW2) for entry O=C1CCC(N2Cc3cc(OC[C@@H]4CCCCN4Cc4c(F)cccc4Cl)ccc3C2=O)C(=O)N1 (stereo partly shown) [Compound I-50n] , please look it up.
Result: 1.7

Ask: Lab note: need remaining activity at up to 25 µM with HiBit-WIZ fusion protein (Homo sapiens, UniProt O95785+Q96SW2) for entry Cc1nnc(-c2ccc(CN3CCCC[C@H]3COc3ccc4c(c3)CN(C3CCC(=O)NC3=O)C4=O)cc2)o1 (stereo partly shown) [Compound I-50i] , please look it up.
Result: 71.2

Ask: Lab note: need remaining activity at up to 25 µM with HiBit-WIZ fusion protein (Homo sapiens, UniProt O95785+Q96SW2) for entry CCOC(=O)c1cccc2[nH]nc(CN3CCCC[C@H]3COc3ccc4c(c3)CN(C3CCC(=O)NC3=O)C4=O)c12 (stereo partly shown) [Compound I-50au] , please look it up.
Result: 75.8

Ask: Lab note: need remaining activity at up to 25 µM with HiBit-WIZ fusion protein (Homo sapiens, UniProt O95785+Q96SW2) for entry Cc1noc(C)c1CN1CCCC[C@H]1COc1ccc2c(c1)CN(C1CCC(=O)NC1=O)C2=O (stereo partly shown) [Compound I-50ao] , please look it up.
Result: 3.2

(P) CC(C)c1ccccc1C(=O)N1CCCC[C@H]1COc1ccc2c(c1)CN(C1CCC(=O)NC1=O)C2=O (stereo partly shown) [Compound I-72gi]
(Q) Nc1ncc(CN2CCCC[C@H]2COc2ccc3c(c2)CN(C2CCC(=O)NC2=O)C3=O)cn1 (stereo partly shown) [Compound I-50be]
Ask: Please indicate which entry, P or Q , has the lower recorded remaining activity at up to 25 µM value. Give the label under which the chosen entry appears.
Result: Q
(Q: 58.1%, P: 85.1%)

(P) CN1CCCC1C(=O)N1CCCC[C@@H]1COc1ccc2c(c1)CN(C1CCC(=O)NC1=O)C2=O (stereo partly shown) [Compound I-72dd]
(Q) O=C1CCC(N2Cc3cc(OC[C@@H]4CCCCN4Cc4cccc(N5CCCC5)c4)ccc3C2=O)C(=O)N1 (stereo partly shown) [Compound I-50aa]
Ask: Please indicate which entry, P or Q , has the lower recorded remaining activity at up to 25 µM value. Give the label under which the chosen entry appears.
Result: Q

(a) O=C1CCC(N2Cc3cc(OC[C@@H]4CCCCN4C(=O)c4snnc4-c4ccccc4)ccc3C2=O)C(=O)N1 (stereo partly shown) [Compound I-72fq]
(b) O=C1CCC(N2Cc3cc(OC[C@@H]4CCCCN4Cc4cccc(N5CCOCC5)n4)ccc3C2=O)C(=O)N1 (stereo partly shown) [Compound I-50bo]
Ask: Please indicate which entry, a or b , has the lower recorded remaining activity at up to 25 µM value. Give the label under which the chosen entry appears.
Result: b

(A) COc1ccc(C(C)(C)C(=O)N2CCCC[C@H]2COc2ccc3c(c2)CN(C2CCC(=O)NC2=O)C3=O)cc1 (stereo partly shown) [Compound I-72fz]
(B) Cn1nnc2cc(CN3CCCC[C@@H]3COc3ccc4c(c3)CN(C3CCC(=O)NC3=O)C4=O)ccc21 (stereo partly shown) [Compound I-50y]
(C) N#Cc1ccccc1CN1CCCC[C@@H]1COc1ccc2c(c1)CN(C1CCC(=O)NC1=O)C2=O (stereo partly shown) [Compound I-50dz]
Ask: Arrange these molecules by their remaining activity at up to 25 µM, starting with the largest number. Put the labels in the requested order and list them out.
Result: A, C, B
(A: 90.9%, C: 37.2%, B: 14.8%)

(P) O=C1CCC(N2Cc3cc(OC[C@@H]4CCCCN4Cc4cc(-n5nnnc5C(F)(F)F)ccc4O)ccc3C2=O)C(=O)N1 (stereo partly shown) [Compound I-50x]
(Q) Cn1cncc1CN1CCCC[C@@H]1COc1ccc2c(c1)CN(C1CCC(=O)NC1=O)C2=O (stereo partly shown) [Compound I-50df]
Ask: Lab note: record which item had the higher remaining activity at up to 25 µM, P or Q . Give the label under which the chosen entry appears.
Result: P

(a) COC(=O)c1nn(-c2cccc(C(F)(F)F)c2)cc1CN1CCCC[C@H]1COc1ccc2c(c1)CN(C1CCC(=O)NC1=O)C2=O (stereo partly shown) [Compound I-50ay]
(b) O=C1CCC(N2Cc3cc(OC[C@H]4CCCCN4Cc4cccc5c4OCCO5)ccc3C2=O)C(=O)N1 (stereo partly shown)
Ask: Please indicate which entry, a or b , has the lower recorded remaining activity at up to 25 µM value. Give the label under which the chosen entry appears.
Result: b
(b: 18.2%, a: 74.3%)

(a) O=C1CCC(N2Cc3cc(OC[C@@H]4CC(F)(F)CN4)ccc3C2=O)C(=O)N1 (stereo partly shown)
(b) O=C1CCC(N2Cc3cc(OC[C@H]4CCCCN4Cc4cccnc4F)ccc3C2=O)C(=O)N1 (stereo partly shown)
Ask: Please indicate which entry, a or b , has the lower recorded remaining activity at up to 25 µM value. Give the label under which the chosen entry appears.
Result: b
(b: 43.1%, a: 78.8%)

(a) CN(C)c1cccc(C(=O)N2CCCC[C@H]2COc2ccc3c(c2)CN(C2CCC(=O)NC2=O)C3=O)c1 (stereo partly shown) [Compound I-72gg]
(b) CCOC(=O)c1n[nH]cc1CN1CCCC[C@@H]1COc1ccc2c(c1)CN(C1CCC(=O)NC1=O)C2=O (stereo partly shown) [Compound I-50ch]
Ask: Please indicate which entry, a or b , has the lower recorded remaining activity at up to 25 µM value. Give the label under which the chosen entry appears.
Result: b

Taken from patent US11566022B2.
